Assay: Acid dissociation constant was determined
Type: ADME
The following molecules are listed with their measured pKa values.

{"SMILES NOTATION": "CCCNC1=NS(=O)(=O)c2sc(Cl)cc2N1", "pKa": 8.23}
{"SMILES NOTATION": "CC[C@@H](C)NC1=NS(=O)(=O)c2sc(Cl)cc2N1", "pKa": 8.54}
{"SMILES NOTATION": "CC[C@H](C)NC1=NS(=O)(=O)c2sc(Cl)cc2N1", "pKa": 8.42}
{"SMILES NOTATION": "CC(C)NC1=NS(=O)(=O)c2sc(Cl)cc2N1", "pKa": 8.35}

###

Species: Rattus norvegicus
Assay: Inhibition of glucose-stimulated insulin release from Wistar rat islets
Assay type: functional
pIC50: −log10 of the molar value.
TEST READOUT: pIC50

{"MOLECULE": "CC[C@@H](C)NC1=NS(=O)(=O)c2sc(Cl)cc2N1", "RECORDED NUMBER": 7.22}
{"MOLECULE": "CC1(NC2=NS(=O)(=O)c3sc(Cl)cc3N2)CCC1", "RECORDED NUMBER": 8.00}
{"MOLECULE": "O=S1(=O)NC(NC2CCCC2)=Nc2cc(Cl)sc21", "RECORDED NUMBER": 6.36}
{"MOLECULE": "CC[C@H](C)NC1=NS(=O)(=O)c2sc(Cl)cc2N1", "RECORDED NUMBER": 7.15}
{"MOLECULE": "CC(C)NC1=NS(=O)(=O)c2sc(Cl)cc2N1", "RECORDED NUMBER": 6.74}
{"MOLECULE": "CCC(C)(C)NC1=NS(=O)(=O)c2sc(Cl)cc2N1", "RECORDED NUMBER": 7.70}
{"MOLECULE": "O=S1(=O)NC(NC2CCC2)=Nc2cc(Cl)sc21", "RECORDED NUMBER": 7.30}
{"MOLECULE": "CC1=Nc2ccc(Cl)cc2S(=O)(=O)N1 [DIAZOXIDE]", "RECORDED NUMBER": 4.69}
{"MOLECULE": "CCCNC1=NS(=O)(=O)c2sc(Cl)cc2N1", "RECORDED NUMBER": 6.15}
{"MOLECULE": "CC(C)(C)NC1=NS(=O)(=O)c2sc(Cl)cc2N1", "RECORDED NUMBER": 7.22}

###

Target: Sulfonylurea receptor 1, Kir6.2 (Homo sapiens, UniProt Q09428+Q14654)
Sequence (Q14654 whole entry): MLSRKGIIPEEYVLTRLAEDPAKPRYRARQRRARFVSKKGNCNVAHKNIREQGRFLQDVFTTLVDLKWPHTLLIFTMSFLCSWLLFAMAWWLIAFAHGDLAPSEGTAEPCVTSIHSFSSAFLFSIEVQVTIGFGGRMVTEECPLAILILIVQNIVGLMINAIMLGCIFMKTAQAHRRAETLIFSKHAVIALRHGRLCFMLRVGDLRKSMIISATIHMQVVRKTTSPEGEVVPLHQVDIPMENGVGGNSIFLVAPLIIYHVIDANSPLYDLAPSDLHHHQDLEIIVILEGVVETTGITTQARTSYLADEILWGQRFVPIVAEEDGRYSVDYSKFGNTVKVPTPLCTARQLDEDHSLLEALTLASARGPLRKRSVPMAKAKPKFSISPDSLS
Sequence (Q09428 whole entry): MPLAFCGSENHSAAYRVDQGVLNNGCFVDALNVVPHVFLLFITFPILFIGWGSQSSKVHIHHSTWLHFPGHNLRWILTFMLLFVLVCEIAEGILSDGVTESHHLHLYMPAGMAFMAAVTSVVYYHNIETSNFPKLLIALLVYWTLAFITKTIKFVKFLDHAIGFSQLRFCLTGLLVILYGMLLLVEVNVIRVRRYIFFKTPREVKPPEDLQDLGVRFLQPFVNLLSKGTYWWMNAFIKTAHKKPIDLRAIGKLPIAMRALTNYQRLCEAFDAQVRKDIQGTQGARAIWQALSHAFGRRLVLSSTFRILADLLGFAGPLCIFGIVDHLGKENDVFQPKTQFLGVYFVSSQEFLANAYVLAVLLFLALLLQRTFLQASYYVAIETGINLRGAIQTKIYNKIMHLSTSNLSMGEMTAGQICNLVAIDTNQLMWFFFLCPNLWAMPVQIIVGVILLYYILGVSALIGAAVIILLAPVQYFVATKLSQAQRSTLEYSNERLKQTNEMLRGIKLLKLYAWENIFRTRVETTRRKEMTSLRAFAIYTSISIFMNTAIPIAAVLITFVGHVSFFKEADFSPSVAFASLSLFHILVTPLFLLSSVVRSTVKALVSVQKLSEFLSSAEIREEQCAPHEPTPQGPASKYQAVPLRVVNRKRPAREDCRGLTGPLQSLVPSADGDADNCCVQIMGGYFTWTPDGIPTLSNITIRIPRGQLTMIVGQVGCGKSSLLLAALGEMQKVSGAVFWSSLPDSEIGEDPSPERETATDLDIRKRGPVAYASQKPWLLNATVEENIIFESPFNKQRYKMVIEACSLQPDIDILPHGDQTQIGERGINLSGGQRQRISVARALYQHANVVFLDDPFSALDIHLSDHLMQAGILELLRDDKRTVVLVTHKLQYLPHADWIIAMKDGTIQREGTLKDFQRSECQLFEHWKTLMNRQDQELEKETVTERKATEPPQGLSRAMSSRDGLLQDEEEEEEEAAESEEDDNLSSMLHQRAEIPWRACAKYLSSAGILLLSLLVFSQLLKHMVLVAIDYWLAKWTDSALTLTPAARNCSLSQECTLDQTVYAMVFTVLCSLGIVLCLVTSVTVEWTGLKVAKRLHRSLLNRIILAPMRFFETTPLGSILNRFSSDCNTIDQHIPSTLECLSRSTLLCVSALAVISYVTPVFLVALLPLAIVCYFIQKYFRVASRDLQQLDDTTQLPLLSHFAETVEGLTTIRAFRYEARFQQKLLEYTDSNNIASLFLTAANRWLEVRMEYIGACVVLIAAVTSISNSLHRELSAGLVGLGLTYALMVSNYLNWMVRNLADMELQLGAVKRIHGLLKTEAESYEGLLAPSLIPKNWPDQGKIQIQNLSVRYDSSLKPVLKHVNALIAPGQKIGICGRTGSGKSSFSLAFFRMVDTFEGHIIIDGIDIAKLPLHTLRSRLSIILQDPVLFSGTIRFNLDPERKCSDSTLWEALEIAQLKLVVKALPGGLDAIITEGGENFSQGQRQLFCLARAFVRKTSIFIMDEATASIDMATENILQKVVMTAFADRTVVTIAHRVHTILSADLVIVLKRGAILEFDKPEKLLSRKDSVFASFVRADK
Assay: Inhibition of [3H]glibenclamide binding to HEK293 cells co-expressing human Sulfonylurea receptor SUR1 and Inward rectifier K+ channel Kir6.2 at high affinity state with 2 mM MgATP
Format: cell-based
pIC50: −log10 of the molar value.

{"SMILES NOTATION": "O=S1(=O)NC(NC2CCC2)=Nc2cc(Cl)sc21", "pIC50": 6.92}
{"SMILES NOTATION": "CCC(C)(C)NC1=NS(=O)(=O)c2sc(Cl)cc2N1", "pIC50": 6.74}
{"SMILES NOTATION": "CC[C@@H](C)NC1=NS(=O)(=O)c2sc(Cl)cc2N1", "pIC50": 6.19}
{"SMILES NOTATION": "CC[C@H](C)NC1=NS(=O)(=O)c2sc(Cl)cc2N1", "pIC50": 6.34}
{"SMILES NOTATION": "CCCNC1=NS(=O)(=O)c2sc(Cl)cc2N1", "pIC50": 5.64}
{"SMILES NOTATION": "CC1(NC2=NS(=O)(=O)c3sc(Cl)cc3N2)CCC1", "pIC50": 8.52}
{"SMILES NOTATION": "CC(C)NC1=NS(=O)(=O)c2sc(Cl)cc2N1", "pIC50": 6.47}
{"SMILES NOTATION": "CC(C)(C)NC1=NS(=O)(=O)c2sc(Cl)cc2N1", "pIC50": 6.64}

Recorded values, source ChEMBL document CHEMBL1135780.
